experiment: yeast display, Sf9 membrane polyspecificity reagent, FACS + sequencing; frameworks hold sequencing errors
REPORTED_METRIC: polyreactivity (PSR sort gate)

# example entries with known answers
QVQLVESGGGLVQAGGSLRLSCAASGFTFNRYVMGWYRQAPGKERELVAAIDSGDSTYYADSVKGRFTISRDNAKNTVYLQMNSLKPEDTAVFYCAAEFKSKFFSDIFDNDYDYWGQGTQVSVSS: high polyreactivity
QVQLVESGGGLVQAGGSLRLSCAASGSTFQSNAMGWYRQAPGKERELVAAINSGTSTYYADSVKGRFTISRDNAKNTVYLQMNSLKPEDTAVYYCAADGIWGEYYYSELGDYDYWGQGTQVTVSS: low polyreactivity
EVQLVESGGGLVQPGGSLRLSCEASGYIYSRYRMGWYRQAPGKAREFVAAISGGSSTNYADSVKGRFTISRDNSKNTVYLQMNSLRAEDTAVYYCAAYKIDSDPRVYWGQGTQVTVSS: low polyreactivity
QVQLVESGGGLVQAGGSLRLSCAASGRTFRVYAMGWYRQAPGKERELVAAIRSGGSTNYADSVKGRFTISRDNAKNTVYLQMNSLKPEDTAVYYCAAVYRNNRQGYQFDYWGQGTQVTVSS: high polyreactivity
QVQLVESGGGLVQEGGSLRLTCAASGRTFTVNAMGWYRQAPGKERELVARISYGGARTYYADSVKGRFTISRDNAKNTVYLQMNSLKPEDTAVYYCAAPGPRKYEYDYWGQGTQVTVSS: high polyreactivity

Look up polyreactivity (PSR sort gate) of `QVQLVESGGGLLQAGGSLRLSCAASGFTFSFYARGWYRQAPGKERELVAAISYSGGITYYADSVKGRFTISRDNAKNTVYLQINSLKPEDTAVYYCAAVPGISVGRQPGYDYDYWGHGTQVTVSS` and report it.
low polyreactivity

Look up polyreactivity (PSR sort gate) of `QVQLVESGGGLVQAGGSLRLSCAASGLTFGAYAMGWYRQAPGKEREFVAAITYSGGSTNYADSVKGRFTISRDNAMNTVYLQMNSLKPEDTAVYYCNAGYYSPWAFYPYDYWGQGTQVTVSS` and report it.
high polyreactivity

* * *

assay: yeast display, Sf9 membrane polyspecificity reagent, FACS + sequencing; frameworks hold sequencing errors
REPORTED_METRIC: polyreactivity (PSR sort gate)

# example entries with known answers
QVQLVESGGGLVQAGGSLRLSCAASGITFRFYAMGWYRQPPGKERELVAAITSGGGTYYADSVKGRFTISRDNAKNTVYLQMNSLKPEDTAVYYCAAYQYNRKRHNYWGLGTQVTVSS: high polyreactivity
QVQLVESGGGLVQAVGSLRLSCAASGRIFYSYAMGWYRQAPGKERELVAAITRGGSTSYADSVKGRFTISRDNAKNTVYLQMNSLKPDDTAVYYCATRQFYSYWKYYYWGQGTQVTVSS: high polyreactivity
QVQLVESGGGLVQAGGSLRLSCAASGFIFRYYAMGWYRQAPGKERELVAAISGSGGGTYYADSVKGRFTISRDNAKNTVYLQMNSLKPEDTAVYYCAAGSTSGYFRYYYWGQGTQVTVSS: high polyreactivity
QVQLVESGGGLVQAGGSLRLSCAASGSTFGLYAMGWYRQAPGKERELVAAISYNTGRTYYADSVKGRFTISRDNAKNTVYLQMNSLKPEDTAVYYCAAEYFIWSYTRYEYWGQGTQVTVSS: high polyreactivity
PVQLVESGGGLVQAGGRLRLSCASSGLTFYYYAMGWYLQSPGKESELVAALSRSGGSTYYADSVKGRFTISRDNAQNTVYLQMISLKPEDTAVYYCAAREPYEVLLYYYEDYYWGQGTQVTVSS: high polyreactivity
QVQLVESGGGLVQAGGSLRLSCAASGFTFEGYAMGWYRQAPGKERELVAAISYSGSSTYYADSVKGRFTISRDNAKNTVYLQMNSLKPEDTAVYYCNARRHWYSAWGYDYWGQGTQVTVSS: high polyreactivity
QVQLVESGGGLVQAGGSLRLSCAASGSTFWFNAMGWYRQAPGKEREFVAAITWRGGSTYYSDSVKGRFTISRDNAKNTVYLQMNSLKPEDTAVYYCAAVTAYYYRRTYEYWGQGTQVTVSS: high polyreactivity
QVQLVESGGGLVQAGGSLRLSCAASGLIFWGYTMGWYRQAPGKERELVAAISRSGGRTYYADSVKGRFTISRDNAKNTVYLQMNSLKPEDTAVYYCAARYYYWGQGTQVTVSS: high polyreactivity
QVQLVESGGGLVQAGGSLRLSCAASGLIFRPYAMGWYRQAPGKERELVAGINSGGNTDYADTVKGRFTISRDNAKNTVYLQMNSLKPEDTAVYYCNREYQVTIYDYWGQGSQVTVSS: low polyreactivity
QVQLVESGGGLVQAGGSLRLSCAASGSTFPYYTMGWYRQAPGKERELVAAITWRGGRTYYADSVKGRFTISRDNAKNTVYLQMNSLKPEDTAVYYCAAKQKHTQQTGWKYEYWGQGTQVTVSS: high polyreactivity

Look up polyreactivity (PSR sort gate) of `QVQLVESGGGLVQAGGSLRLSCAASGSTFLYVMGWYRQAPGKERELVAAISESGGSTYYADSVKGRFTISRDNAKNTLYLQMNSLKPEDTAVYYCAADLPTGLQYRYYRVDYWGQGTQVTVSS` and report it.
low polyreactivity

* * *

assay: yeast display, Sf9 membrane polyspecificity reagent, FACS + sequencing; frameworks hold sequencing errors
REPORTED_METRIC: polyreactivity (PSR sort gate)

QVQLVESGGGLVQAGGSLRLSCAASGLTFYYYVMGWYRQAPGKERELVAAISSSGGNTYYADSVKGRFTISRDNAKNTVYLQMNSLKPEDTAVYYCAAGQKRTLDNYWGQGTQVTVSS: high polyreactivity
QVQLVESGGGLVQAGGSLRLSCAASGRIFRYNAMGLYRQAPGKERELVAAISRSGGSTYYADSVKGRFTISRDNAKNTVYLQMNSLKPEDTAVYYCAVRRDGSGGNLDYWGQGTQVTVSS: high polyreactivity
QVQLVESGGGLVQAGGSLRLSCAATGSTIPYYAMGWYRQAPGKERELVARITSGDRTYYADSVKGRFTISRDNAKNTVYLQMNSLKPEDTADYYCNAQVHYYSWYGYWGQGTQVTVSS: high polyreactivity

* * *

assay: yeast display, Sf9 membrane polyspecificity reagent, FACS + sequencing; frameworks hold sequencing errors
REPORTED_METRIC: polyreactivity (PSR sort gate)

# example entries with known answers
QLQLVESGGGLVQAGGSLRLSCAASVFTLRGYAMGWYRQATCKERELVADISGGGSTDYADSVKVRFTISRDNAKNTVYLQMNSLKPEDTAVYYCAAYGYLWWEMDYWGQGTQVTVSS: high polyreactivity
QVQLVESGGGLVQAGGSLRLSCAASGGIFTKNAMGWYRQAPGKERELVAGISRTGGNTYYADSVKGRFTISRDNAKNTVYLQMNSLKPEDSAVYYCAAGRYYAVWQSISGFDSWGQGTQVTVSS: low polyreactivity
QVQLLESGGGLVQAGGSLRLSCAASGFIFPGYAMGWYRQAPGKEREFVAAITSRGGSTYYADSVKGRFTISRDNAKNTVYLQMNSLKPEDTAVYYCAARNFLSRRGTYDYWGQGTQVTVSS: high polyreactivity
QVQLVESGVGLVQAGGSLRLTCAASGSIFGRKAMGWYRKATGKERELVAAIRTRGGSTYYADSVKGRFTISRDNAKNTLYLQMNSLKPEDTAVFFCAAPGGGKVVDYWGQGTHVTVSS: low polyreactivity
QVQIVESGGGLVQAGGSLRLSCAASGRIFYWNVMGWYRQAPGKERELVAAITRSSGGTSTYADSVKGRFTISRVNAKNTVYLQMNSLKPEDTAVYYCATRRRQAKSGRAYDYWGQGTQVTVSS: high polyreactivity

Look up polyreactivity (PSR sort gate) of `QVQLVDSGGRLLQAGGSLRLSCAASGRTFYYYAKGWYRQAPGKERELVASITSDGDTNYADSVKGRFTISGDNAKNTGYLQMNSLKPEDTAVYYCAAEWQTQGYEYWGQGTQVTVSS` and report it.
high polyreactivity

Look up polyreactivity (PSR sort gate) of `QVQLVESGGGLVQAGGSLRLSCAASGSTFSRYAMGWSRQAPGKERELVAVITGSGGSTYYADSVKGRFTISRDNAKNTVYLQMNSLKPEDTAVYYCNAVYFALSPQYYWAASDYWGQGTQVTVSS` and report it.
high polyreactivity

Look up polyreactivity (PSR sort gate) of `QDQLVESGGGLVQAGGRRRLSCAASGSIFGGYSMGWYRQAPGKERELVAAISRRGGNTYYADSVKGRFTISGDNAKNTVYLQMNSLKPDDTAVYYCAVRWPSARIPVKLDYWVQGTQVTVSS` and report it.
high polyreactivity

Look up polyreactivity (PSR sort gate) of `QVQLEESGGGLVQAGGSLRLSCAASGSILESNVMGWYRQAPGKERELVASISSSGDSTYADSVKGRFTISRDNAKNTVYLQMNSLKPEDTAVYYCAADRWYWTYALYYWGQGTQVTVSS` and report it.
low polyreactivity

Look up polyreactivity (PSR sort gate) of `QVQLLESGGGLVQAGGCLRLRCAASVRTFEQNAMGWCRRAPGKERELVASITSVGSTDYADSVKGRFTISRDNAKNTVYLQMNSLKPEDTAGYYCAKTLGSQNYDFDYWGQGTQVTVSS` and report it.
low polyreactivity

Look up polyreactivity (PSR sort gate) of `QVQLQESGGGLVQAGGSLRLSSAASGTISVHATMGWYRQAPGKERELVAGITDGANTYYADSVKGRFTISRDNSKNTEYLQMNSLKPEDTAVYYCAAYYGTVVHFTYWGQGTQVTVSS` and report it.
low polyreactivity

Look up polyreactivity (PSR sort gate) of `QVQLVESGGGLVQAGGSLRLSCAATGSTFYVNDMGWYRQAPGKERELVAAIDWTGGTTYYADSEKGRFTISRDNAKNTVYLQMNSLKPEDSAVYYCAVDDSTVDYDYWGQGTQVTVSS` and report it.
low polyreactivity

Look up polyreactivity (PSR sort gate) of `QVQLVESGGGLVQAGASLRLSCAASGRIFYLNVMGWYIQAPGKERELVAAISSSDDSTYYADSVKGRFTISRHYAKNTVYLQMNSLKPEDTAVYYCAAGYHQVQNYGDAYYWSELYSWGLGTQVTVSS` and report it.
low polyreactivity

Entry source: the nanobody polyreactivity screen of Harvey et al. (2022)
